Tested target: human 5-hydroxytryptamine-2C (h5-HT2C) receptor (Homo sapiens, UniProt P28335)
Construct: expressed in transfected cells; host or cells: CHO (Chinese Hamster Ovary) cells; membranes
Sequence (P28335 33-458): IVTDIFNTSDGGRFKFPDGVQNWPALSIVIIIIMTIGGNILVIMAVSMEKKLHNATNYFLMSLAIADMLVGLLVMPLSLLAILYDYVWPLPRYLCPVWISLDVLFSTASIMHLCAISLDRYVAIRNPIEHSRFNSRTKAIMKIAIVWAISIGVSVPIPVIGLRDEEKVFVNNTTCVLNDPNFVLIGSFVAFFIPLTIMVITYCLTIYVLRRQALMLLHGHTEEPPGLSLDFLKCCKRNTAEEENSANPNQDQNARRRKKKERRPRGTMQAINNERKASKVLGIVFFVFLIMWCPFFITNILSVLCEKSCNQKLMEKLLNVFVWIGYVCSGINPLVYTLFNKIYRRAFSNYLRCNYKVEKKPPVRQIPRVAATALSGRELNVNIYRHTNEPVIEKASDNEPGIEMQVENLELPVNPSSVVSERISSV
Test protocol: [125I]DOI binding to membranes of CHO cells expressing the human 5-HT2C receptor
Condition description: [125I]DOI radioligand, CHO cell membranes, room temperature 60 min; read-out: 5-HT2C Affinity Ki
We label by threshold. Values of Ki strictly beneath 60 nM are Met. Values of 60 nM and up are Not met.

- COc1cc2c(c(-c3cccc(F)c3F)c1)OC(CN)C2 (racemic): Met
- NCC1Cc2cccc(Nc3cc(F)cc(F)c3)c2O1 (racemic): Not met
- CNCC1Cc2cc(C)cc(-c3ccc(C)cc3)c2O1 (racemic): Met
- NCC1Cc2cc(F)cc(-c3c(F)cccc3F)c2O1 (racemic): Met
- NCC1Cc2c(cccc2-c2ccccc2)O1 (single isomer, unassigned; (-)) [Example 3]: Not met
- COc1cccc(-c2cccc3c2OC(CN)C3)c1OC (single isomer, unassigned; (+)) [Example 157]: Met
- NCC1Cc2cccc(Nc3ccc(F)cc3)c2O1 (racemic): Not met
- NCC1Cc2cc(-c3ccccc3)cc(-c3cc(Cl)ccc3Cl)c2O1 (racemic): Not met
- CNCC1Cc2cccc(-c3cccc(OC)c3)c2O1 (racemic): Met

----------
Tested target: UniProt:P28335
Test protocol: 5-HT2C receptor-stimulated calcium mobilization (FLIPR) in CHO cells;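 note: Fluo-3-AM fluorescence read on FLIPR every 1 s, agonist added after 10 baseline reads, response taken as peak minus lowest raw fluorescence count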
Type: cell-based
Condition description: calcium mobilization, CHO cells stably expressing human 5-HT2C; read-out: 5-HT2C Function EC50
pEC50: −log10 of the molar value.
# pEC50 listing for each entry below
Measured quantity: pEC50

* NCC1Cc2cccc(-c3cccc(Cl)c3)c2O1 (single isomer, unassigned; (+)) [Example 66] | 6.60
* COc1cc2c(c(-c3ccc(F)cc3F)c1)OC(CN)C2 (racemic) | 7.21
* Cc1cc2c(c(-c3c(C)cccc3C)c1)OC(CN)C2 (racemic) | 7.51
* CNCC1Cc2cc(C)cc(-c3ccc(Cl)cc3)c2O1 (racemic) | 7.12
* CNCC1Cc2cc(F)cc(-c3ccccc3C)c2O1 (racemic) [Example 440] | 8.05
* NCC1Cc2cc(F)cc(-c3cccnc3)c2O1 (single isomer, unassigned; (-)) [Example 207] | 6.95
* CNCC1Cc2cccc(-c3ccccc3C)c2O1 (single isomer, unassigned; (-)) [Example 407] | 6.83
* NCC1Cc2cc(C(F)(F)F)cc(-c3ccsc3)c2O1 (racemic) | 6.23

From: patent US7435837B2
